Target: mGluR5 (Homo sapiens)
Sequence (P41594 21-1180 isoform P41594-2 limits assumed): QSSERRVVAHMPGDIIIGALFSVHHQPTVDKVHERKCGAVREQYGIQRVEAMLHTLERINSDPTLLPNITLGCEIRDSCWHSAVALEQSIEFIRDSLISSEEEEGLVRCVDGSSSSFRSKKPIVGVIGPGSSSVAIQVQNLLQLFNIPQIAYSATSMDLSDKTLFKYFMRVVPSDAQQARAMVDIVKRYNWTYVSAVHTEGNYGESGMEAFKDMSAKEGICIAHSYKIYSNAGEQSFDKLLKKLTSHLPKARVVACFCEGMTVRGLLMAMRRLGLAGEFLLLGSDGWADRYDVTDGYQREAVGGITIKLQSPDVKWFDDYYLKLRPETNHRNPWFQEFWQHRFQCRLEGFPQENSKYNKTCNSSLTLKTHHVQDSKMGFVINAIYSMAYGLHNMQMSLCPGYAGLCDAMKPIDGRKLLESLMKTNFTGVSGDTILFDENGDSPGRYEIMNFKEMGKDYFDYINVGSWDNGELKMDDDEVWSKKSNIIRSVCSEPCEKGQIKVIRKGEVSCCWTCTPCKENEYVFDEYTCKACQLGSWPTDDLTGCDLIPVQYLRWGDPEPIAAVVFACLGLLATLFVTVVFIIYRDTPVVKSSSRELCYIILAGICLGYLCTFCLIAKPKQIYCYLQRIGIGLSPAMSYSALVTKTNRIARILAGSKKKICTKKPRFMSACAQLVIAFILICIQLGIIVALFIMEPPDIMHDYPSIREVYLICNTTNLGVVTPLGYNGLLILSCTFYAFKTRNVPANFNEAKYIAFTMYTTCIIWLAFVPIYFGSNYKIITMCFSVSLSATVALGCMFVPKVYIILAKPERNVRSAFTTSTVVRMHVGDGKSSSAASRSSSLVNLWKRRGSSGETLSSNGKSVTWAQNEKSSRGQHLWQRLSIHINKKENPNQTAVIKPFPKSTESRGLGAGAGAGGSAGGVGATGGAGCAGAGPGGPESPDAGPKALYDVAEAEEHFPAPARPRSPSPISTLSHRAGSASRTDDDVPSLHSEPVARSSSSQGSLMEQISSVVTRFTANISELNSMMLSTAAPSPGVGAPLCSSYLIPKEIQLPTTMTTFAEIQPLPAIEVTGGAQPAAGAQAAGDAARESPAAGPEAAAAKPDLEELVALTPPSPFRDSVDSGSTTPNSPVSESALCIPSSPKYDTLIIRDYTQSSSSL
Assay: inhibition of the glutamate induced elevation of intracellular Ca2+ concentration
Details: read-out: mGluR5 Activity inh. at 10 μM [%]
Where a name gives a salt, the structure may show the parent alone.
The reader will find reported inhibition at 10 µM values listed item by item below.

[
  {
    "COMPOUND": "O=C(c1ccc(Nc2ccc(Cl)cc2)nn1)N1CCc2ccccc2C1 [Compound 8.4]",
    "inhibition at 10 µM, %": 89
  },
  {
    "COMPOUND": "Cc1ccc(Nc2ncc(C(=O)N3CCCCC3C(F)C(C)F)cc2Cl)cn1 (centres unmarked) [Compound 4.63]",
    "inhibition at 10 µM, %": 100
  },
  {
    "COMPOUND": "O=C(c1ccc(Nc2ccc(Cl)cc2)nc1)N1CCOCC1 [Compound 1.17, hydrochloride]",
    "inhibition at 10 µM, %": 83
  },
  {
    "COMPOUND": "Cc1ccc(Nc2ncc(C(=O)N3CCCCC3CCO)cc2Cl)cn1 (centres unmarked) [Compound 4.61]",
    "inhibition at 10 µM, %": 79
  },
  {
    "COMPOUND": "COc1ccc(Nc2ccc(C(=O)N3CCOCC3)cn2)cc1 [Compound 1.18, hydrochloride]",
    "inhibition at 10 µM, %": 32
  },
  {
    "COMPOUND": "Cc1ccc(Nc2ncc(C(=O)N3C(C)(C)CCCC3(C)C)cc2Cl)cn1 [Compound 4.49]",
    "inhibition at 10 µM, %": 66
  },
  {
    "COMPOUND": "O=C(c1ccc(Nc2ccc(Cl)cc2)nc1)N1CCCC(F)(F)C1 [Compound 4.3]",
    "inhibition at 10 µM, %": 92
  },
  {
    "COMPOUND": "CCC[C@H]1CCCCN1C(=O)c1cnc(Nc2ccc(C)nc2)c(Cl)c1 [Compound 4.35]",
    "inhibition at 10 µM, %": 85
  },
  {
    "COMPOUND": "CC[C@@H]1CCCCN1C(=O)c1cnc(Nc2ccc(C(F)(F)F)nc2)c(Cl)c1 [Compound 2.23]",
    "inhibition at 10 µM, %": 100
  },
  {
    "COMPOUND": "COc1cc(C(=O)N2CCCCC2)cnc1Nc1ccc(C)nc1 [Compound 6.4]",
    "inhibition at 10 µM, %": 98
  },
  {
    "COMPOUND": "O=C(c1cnc(Nc2ccc(Cl)cc2)nc1)N1CCCCC1 [Compound 5.4]",
    "inhibition at 10 µM, %": 83
  },
  {
    "COMPOUND": "O=C(c1ccc(Nc2ccc(Cl)cc2)nc1)N1CCCCCC1 [Compound 4.2]",
    "inhibition at 10 µM, %": 97
  },
  {
    "COMPOUND": "CCCC1CCCC(C)N1C(=O)c1cnc(Nc2ccc(C)nc2)c(Cl)c1 (centres unmarked) [Compound 4.50]",
    "inhibition at 10 µM, %": 98
  },
  {
    "COMPOUND": "C[C@@H]1CCCN(C(=O)c2ccc(Nc3ccc(Cl)cc3)nc2)C1 [Compound 1.12b]",
    "inhibition at 10 µM, %": 100
  },
  {
    "COMPOUND": "O=C(c1ccc(Nc2cccnc2)nc1)N1CCCCCC1 [Compound 2.2]",
    "inhibition at 10 µM, %": 46
  },
  {
    "COMPOUND": "CCC1C(C)CCCN1C(=O)c1cnc(Nc2ccc(C)nc2)c(Cl)c1 (centres unmarked) [Compound 4.40]",
    "inhibition at 10 µM, %": 98
  },
  {
    "COMPOUND": "COc1ccc(Nc2ncc(C(=O)N3CCCCC3)cc2Cl)cn1 [Compound 2.8]",
    "inhibition at 10 µM, %": 96
  },
  {
    "COMPOUND": "Cc1ccc(Nc2ncc(C(=O)N3CCCCC3c3cccnc3)cc2Cl)cn1 (centres unmarked) [Compound 4.43]",
    "inhibition at 10 µM, %": 100
  },
  {
    "COMPOUND": "Cc1ccc(Nc2ncc(C(=O)N3CCCCC3C(C)C)cc2Cl)cn1 (centres unmarked) [Compound 4.28]",
    "inhibition at 10 µM, %": 93
  },
  {
    "COMPOUND": "CCCC1CCC(F)CN1C(=O)c1cnc(Nc2ccc(C)nc2)c(Cl)c1 (centres unmarked) [Compound 4.62]",
    "inhibition at 10 µM, %": 99
  },
  {
    "COMPOUND": "CC1CCCN(C(=O)c2ccc(Nc3ccc(Cl)cc3)nc2)C1 (racemic) [Compound 1.12]",
    "inhibition at 10 µM, %": 93
  },
  {
    "COMPOUND": "O=C(c1cnc(Nc2ccc(Cl)cc2)c(Cl)c1)N1CCCCCC1 [Compound 5.1]",
    "inhibition at 10 µM, %": 98
  },
  {
    "COMPOUND": "Cc1ccc(Nc2ncc(C(=O)N3CCCCC3c3ccccc3)cc2Cl)cn1 (centres unmarked) [Compound 4.41]",
    "inhibition at 10 µM, %": 96
  },
  {
    "COMPOUND": "CCOc1cc(C(=O)N2CCCCCC2)cnc1Nc1ccc(C)nc1 [Compound 6.6]",
    "inhibition at 10 µM, %": 54
  },
  {
    "COMPOUND": "Cc1ccc(Nc2ncc(C(=O)N3CCCCC3CC(C)F)cc2Cl)cn1 (centres unmarked) [Compound 4.64]",
    "inhibition at 10 µM, %": 99
  },
  {
    "COMPOUND": "Cc1ccc(Nc2ncc(C(=O)N3CCCC[C@@H]3C)cc2Cl)cn1 [Compound 4.23]",
    "inhibition at 10 µM, %": 95
  },
  {
    "COMPOUND": "CCC1CCCN(C(=O)c2cnc(Nc3ccc(C)nc3)c(Cl)c2)C1CC (centres unmarked) [Compound 4.37]",
    "inhibition at 10 µM, %": 94
  },
  {
    "COMPOUND": "O=C(c1ccc(Nc2ccc(Cl)cc2)nc1)N1CC2CCC1C2 (racemic) [Compound 4.12]",
    "inhibition at 10 µM, %": 96
  },
  {
    "COMPOUND": "Cc1ccc(Nc2ccc(C(=O)N3CCCCC3)cn2)cn1 [Compound 4.1]",
    "inhibition at 10 µM, %": 99
  },
  {
    "COMPOUND": "CCC1OCCCCN1C(=O)c1cnc(Nc2ccc(C)nc2)c(Cl)c1 (centres unmarked) [Compound 4.65]",
    "inhibition at 10 µM, %": 83
  },
  {
    "COMPOUND": "COc1ccc(Nc2ccc(C(=O)N3CCCC(C)C3)cn2)cc1 (centres unmarked) [Compound 1.14, hydrochloride]",
    "inhibition at 10 µM, %": 94
  },
  {
    "COMPOUND": "O=C(c1ccc(Nc2ccc(Cl)c(F)c2)nc1)N1CCCCC1 [Compound 1.5]",
    "inhibition at 10 µM, %": 90
  }
]
